This collection of values is drawn from paper PMC6372667.

Task for the reader: assign each of the following compounds its reported LD50 Based on MTT Assay, B16F10.
Test system: B16F10 mouse melanoma
Assay: MTT cytotoxicity assay, B16F10
Type: cell-based
Conditions: 24 h

Cc1cc2c(c(C)c1CCO)C(=O)C(C)(C)C2: 618 ± 71 µM
Cc1cc2c(c(C)c1CCO[C@@H]1O[C@H](CO)[C@@H](O)[C@H](O)[C@H]1O)C(=O)C(C)(C)C2 [Pteroside Z, pteroside Z]: >5,000 µM
Cc1cc2c(c(C)c1CCO[C@@H]1O[C@H](CO)[C@@H](O)[C@H](O)[C@H]1O)C(=O)[C@@H](C)[C@H]2O [(2S,3R)-Pteroside C, (2S,3R)-pteroside C]: >5,000 µM
Cc1c(CCO[C@@H]2O[C@H](CO)[C@@H](O)[C@H](O)[C@H]2O)c(CO)cc2c1C(=O)[C@@H](C)C2 [(2S)-Pteroside P, (2S)-pteroside P]: >5,000 µM
Cc1cc2c(c(C)c1CCO)C(=O)C(C)(COC1OC(CO)C(O)C(O)C1O)C2 [(2S)-Pteroside A2, (2S)-pteroside A2]: >5,000 µM

Can you give me LD50 Based on MTT Assay, B16F10 for all of these, one by one?
1. Cc1cc2c(c(C)c1CCO)C(=O)[C@](C)(CO)C2
2. Cc1cc2c(c(C)c1CCOC1OC(CO)C(O)C(O)C1O)C(=O)C(C)(CO)C2 [(2S)-Pteroside A, (2S)-pteroside A]

1. 522 ± 25 µM
2. >5,000 µM
